measurement-target: T1, human CD20 (human, UniProt P11836 1-297)
T1 sequence (looked up): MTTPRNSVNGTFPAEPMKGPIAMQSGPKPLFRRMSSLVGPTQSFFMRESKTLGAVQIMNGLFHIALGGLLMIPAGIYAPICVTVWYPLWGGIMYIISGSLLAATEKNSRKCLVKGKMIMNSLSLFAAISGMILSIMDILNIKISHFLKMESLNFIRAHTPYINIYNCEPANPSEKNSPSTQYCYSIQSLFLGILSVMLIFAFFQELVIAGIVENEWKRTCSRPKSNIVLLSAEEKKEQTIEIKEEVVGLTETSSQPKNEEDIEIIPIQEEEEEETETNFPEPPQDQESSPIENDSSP
assay-name: cell-based or functional assay
Reported EC50 µg/ml Ramos Apoptosis WST-1 is given for each of the following binders.
parameter-measured: EC50 µg/ml Ramos Apoptosis WST-1 (µg/mL)

mAb 1.12.3 (antibody, human IgG1, V domains shown) VH: EVQLVQSGAEVKKPGESLKISCKGSGYSFTSYWIGWVRQMSGKGLEWMGIIYPGDSDTRYSPSFQGQVTISADKSISTAYLQWSSLKASDTAIYYCARHPSYGSGSPNFDYWGQGTLVTVSS VL: DIVMTQTPLSSPVTLGQPASISCRSSQSLVYSDGNTYLSWLQQRPGQPPRLLFYKISNRFSGVPDRFSGSGAGTDFTLKISRVEAEDVGVYYCVQATQFPLTFGGGTKVEIK :: 0.0383
mAb 1.13.2 (antibody, human IgG1, V domains shown, Human IgG1 kappa; also called 1.13.1; 50-001H1_13_1) VH: EVQLVQSGAEVKKPGESLKISCKGSGYSFTNYWIGWVRQMPGKGLEWMGIIYPGDSDTRYSPSFQGQVTISADKSISTAYLQWSSLKASDTAMYYCARQGDYYHYSGMDVWGQGTTVTVSS VL: DVVMTQSPLSLSVTLGQPASISCRSSQSLVYNDGDTYLNWFQQRPGQSPRLLIYKVSNWDSGVPDRFSGSGSGTDFTLKVSRVEAEDVGVYYCMQGTHWPLTFGGGTKVEIK :: 0.096
mAb 1.6.2 (antibody, human IgG1, V domains shown) VH: EVQLVQSGAEVKKPGESLKISCKGSGYSFTSYWIGWVRQMPGKGLEWMGIIYPGDSDTRYSPSFQGQVTISADKSISTAYLQWSSLKASDTAMYYCARHGDYSNIDAFDIWGQGTMVTVSS VL: DVVMTQSPLSLPVTLGQPASISCRSSQSLVYSDGNAYLNWFQQRPGQSPRRLIYKVSNWDSGVPDRFSGSGSGTDFTLKIRRVEAEDVGAYYCMQGIHCTFGPGTKVHIK :: 0.0393
mAb 2.2.2 (antibody, human IgG1, V domains shown) VH: EVQLVQSGAEVKKPGESLKISCKGSGYSFTSYWIGWVRQMPGKGLEWMGIIYPGDSDTKYSPSFQGQVTISADKSISTAYLQWSSLKASDTAMYYCARQGDFWSGNGGMDVWGQGTTVTVSS VL: DIVMTQTPLSSPVTLGQPASISCRSSQSLVSRDGNTYLSWLQQRPGQPPRLLIYKISNRFSGVPDRFSGSGAGTDFTLKISRVEVEDVGVYYCMQATQFPITFGQGTRLEIK :: 0.00076
